// data source = patent CN114907476A

# 最大抑制 per record follows
Biological target: T1, 表达于CHOK1细胞表面的人TIGIT (CHOK1/人TIGIT细胞, 吉满生物 GM-C01116) (human, UniProt Q495A1 22-244)
T1 construct: whole, on cells; Purchased cell line; also called CHOK1/hTIGIT
T1 sequence (looked up): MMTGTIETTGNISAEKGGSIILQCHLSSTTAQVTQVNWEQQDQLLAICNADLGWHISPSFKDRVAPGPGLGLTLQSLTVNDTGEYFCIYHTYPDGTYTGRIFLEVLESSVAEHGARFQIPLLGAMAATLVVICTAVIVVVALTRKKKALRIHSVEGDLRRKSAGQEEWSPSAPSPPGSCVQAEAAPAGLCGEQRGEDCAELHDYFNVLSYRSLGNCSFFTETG
Experiment: flow cytometry competition, inhibition of Biotinylated-CD155 (0.6μg/ml) binding to CHOK1/hTIGIT cells
Supply the numeric figure in %, leaving out any unit text.

1) 人源化抗TIGIT抗体A3 (antibody, human IgG1, kappa, V domains shown, Humanized) VH: QLQLVQSGAEVKKPGASVKVSCKASGYSFTDYNMNWVRQAPGQSLEWIGVINPNHGTISYNQKFKGRVTMTRDQSTSTAYMELNSLRSEDTAVYYCANNWDVWYFDVWGQGTLVTVSS VL: DIQMTQSPSSLSASVGDRVTITCRPSENIYSYLAWYQQKPGNAPKLLVYNAKALAEGVPSRFSGSGSGTQFTLTISSLQPEDFATYYCQHHFGAPWTFGQGTKVEIKR : 99.6
2) 人源化抗TIGIT抗体A1 (antibody, human IgG1, kappa, V domains shown, Humanized) VH: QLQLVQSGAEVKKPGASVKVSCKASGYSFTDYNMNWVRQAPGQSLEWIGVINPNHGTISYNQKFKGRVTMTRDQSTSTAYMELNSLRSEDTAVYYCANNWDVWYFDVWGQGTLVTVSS VL: DIQMTQSPSSLSASVGDRVTITCRPSENIYSYLAWYQQKPGKAPKLLIYNAKALAEGVPSRFSGSGSGTDFTLTISSLQPEDFATYYCQHHFGAPWTFGQGTKVEIKR : 99.3
3) 人源化抗TIGIT抗体A2 (antibody, human IgG1, kappa, V domains shown, Humanized) VH: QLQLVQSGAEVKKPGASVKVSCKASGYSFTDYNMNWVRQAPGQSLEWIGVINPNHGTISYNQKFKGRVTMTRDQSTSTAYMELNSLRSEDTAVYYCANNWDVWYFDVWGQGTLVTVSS VL: DIQMTQSPSSLSASVGDRVTITCRPSENIYSYLAWYQQKPGKAPKLLVYNAKALAEGVPSRFSGSGSGTDFTLTISSLQPEDFATYYCQHHFGAPWTFGQGTKVEIKR : 99.6
4) 阳性对照抗体P1 (antibody, human IgG1, kappa, V domains shown, Positive control anti-TIGIT antibody) VH: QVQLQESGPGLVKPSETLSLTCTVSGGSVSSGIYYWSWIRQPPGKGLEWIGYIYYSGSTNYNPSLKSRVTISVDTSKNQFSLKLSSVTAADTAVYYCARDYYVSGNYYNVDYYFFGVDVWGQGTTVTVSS VL: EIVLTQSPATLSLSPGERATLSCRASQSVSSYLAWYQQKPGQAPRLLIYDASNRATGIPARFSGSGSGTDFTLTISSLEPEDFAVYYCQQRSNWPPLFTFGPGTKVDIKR : 100
5) 嵌合抗TIGIT抗体A0 (antibody, human IgG1, kappa, V domains shown, also called B011-A-142E4C5) VH: ELQLQQSGPELVKPGASVKISCKASGYSFTDYNMNWVKQSNGKSLEWIGVINPNHGTISYNQKFKGKATLTVDQSSSTAYMQLNSLTSEDSAVYYCANNWDVWYFDVWGTGTTVTVSS VL: DIQMTQSPASLSASVGETVTITCRPSENIYSYLAWYRQKQGNSPQLLVYNAKALAEGVPSRFSGSGSGTQFSLKINSLQPEDFGSYYCQHHFGAPWTFGGGTKLEIKR : 99.2

Now turn to the next binder.
人源化抗TIGIT抗体A4 (antibody, human IgG1, kappa, V domains shown, Humanized) VH: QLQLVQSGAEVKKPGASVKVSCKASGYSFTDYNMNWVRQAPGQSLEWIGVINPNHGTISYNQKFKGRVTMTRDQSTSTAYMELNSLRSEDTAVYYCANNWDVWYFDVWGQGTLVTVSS VL: DIQMTQSPSSLSASVGDRVTITCRPSENIYSYLAWYQQKPGNSPKLLVYNAKALAEGVPSRFSGSGSGTQFTLTISSLQPEDFATYYCQHHFGAPWTFGGGTKVEIKR yielded 最大抑制 of 99.5
